Molecular target: HIF1A
Assay: HeLa, 100 nM transfected, 24 h, mean of 3
Details: ASO
Bases are written 5' to 3'; sugars and linkages follow in the same order, as letters with counts (s phosphorothioate, o phosphodiester; PS: all linkages phosphorothioate). C may stand for cytosine or 5-methylcytosine; the collection does not tell. l = locked nucleic acid (LNA); d = 2'-deoxy (DNA)
Answer each item with its documented caspase activation (% of PBS control).
One number for each entry.

{"Input sequence": "GCAAGCATCCTGT (sugars l1 d11 l1, PS)", "caspase activation (% of PBS control)": 137}
{"Input sequence": "TGGCAAGCATCCTGTA (sugars ldldldddddddlddl, PS)", "caspase activation (% of PBS control)": 226}
{"Input sequence": "GTTACTGCCTTCTTAC (sugars ldddlddddddldddl, PS)", "caspase activation (% of PBS control)": 137}
{"Input sequence": "GCAAGCATCCTGT (sugars l3 d7 l3, PS)", "caspase activation (% of PBS control)": 600}

Hey, quick one: what's caspase activation (% of PBS control) for each of these?
1. CAAGCATCCTGTA (sugars l3 d9 l1, PS)
2. TGGCAAGCATCCT (sugars l1 d9 l3, PS)
3. TGGCAAGCATCCTGTA (sugars ldddlddddddldldl, PS)
4. GTTACTGCCTTCTTAC (sugars l2 d1 l2 d9 l2, PS)
5. GTTACTGCCTTCTTAC (sugars l3 d9 l1 d2 l1, PS)
6. CAAGCATCCTGTA (sugars ldllddddddldl, PS)
7. GTTACTGCCTTCTTAC (sugars l4 d9 l1 d1 l1, PS)

# output
1. 237
2. 330
3. 213
4. 161
5. 185
6. 130
7. 191
